Ref: ChEMBL document CHEMBL1154378

molecular target: Histamine H3 receptor (Homo sapiens, UniProt Q9Y5N1); assay: Displacement of [125I]iodoproxyfan from human histamine H3 receptor expressed in CHO-K1 cells
Sequence (Q9Y5N1 whole entry): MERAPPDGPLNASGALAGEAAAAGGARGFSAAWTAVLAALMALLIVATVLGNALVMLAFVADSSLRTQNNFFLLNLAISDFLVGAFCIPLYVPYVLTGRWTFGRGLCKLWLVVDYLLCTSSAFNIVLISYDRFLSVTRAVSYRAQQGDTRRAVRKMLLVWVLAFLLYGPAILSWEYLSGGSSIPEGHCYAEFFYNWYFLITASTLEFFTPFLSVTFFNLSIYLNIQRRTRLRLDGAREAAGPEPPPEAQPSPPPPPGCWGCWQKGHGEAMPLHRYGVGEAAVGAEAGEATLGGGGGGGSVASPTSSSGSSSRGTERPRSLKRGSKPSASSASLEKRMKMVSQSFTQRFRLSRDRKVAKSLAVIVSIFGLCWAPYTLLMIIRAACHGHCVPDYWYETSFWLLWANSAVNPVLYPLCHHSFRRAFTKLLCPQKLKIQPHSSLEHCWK
Readout Name: pKi
pKi here: minus log base 10 of the concentration, concentration in moles per litre.

{"Compound": "CCCCCC(C)NC(=O)OCCCc1c[nH]cn1 (racemic)", "Observed Measurement": 7.28}

Form entry - test system: Histamine H3 receptor (Homo sapiens, UniProt Q9Y5N1); read-out: pKi; compound: CCCCC[C@@H](C)NC(=O)OCCCc1cnc[nH]1
7.39

Form entry - test system: Histamine H3 receptor (Homo sapiens, UniProt Q9Y5N1); read-out: pKi; compound: CCCC(C)CNC(=O)OCCCc1c[nH]cn1 (racemic)
8.08

Form entry - test system: Histamine H3 receptor (Homo sapiens, UniProt Q9Y5N1); read-out: pKi; compound: CCC(C)CCNC(=O)OCCCc1c[nH]cn1 (racemic)
7.89

Form entry - test system: Histamine H3 receptor (Homo sapiens, UniProt Q9Y5N1); read-out: pKi; compound: CCCC[C@H](C)NC(=O)OCCCc1cnc[nH]1
7.38

Form entry - test system: Histamine H3 receptor (Homo sapiens, UniProt Q9Y5N1); read-out: pKi; compound: CCCCC(C)NC(=O)OCCCc1c[nH]cn1 (racemic)
7.54

Form entry - test system: Histamine H3 receptor (Homo sapiens, UniProt Q9Y5N1); read-out: pKi; compound: CC(C)CCCC(C)NC(=O)OCCCc1cnc[nH]1 (racemic)
7.12

Form entry - test system: Histamine H3 receptor (Homo sapiens, UniProt Q9Y5N1); read-out: pKi; compound: CCC[C@@H](C)NC(=O)OCCCc1cnc[nH]1
7.82

Form entry - test system: Histamine H3 receptor (Homo sapiens, UniProt Q9Y5N1); read-out: pKi; compound: CCCCCCC(C)NC(=O)OCCCc1c[nH]cn1 (racemic)
7.04

Form entry - test system: Histamine H3 receptor (Homo sapiens, UniProt Q9Y5N1); read-out: pKi; compound: CC[C@H](C)CNC(=O)OCCCc1c[nH]cn1
8.33

Form entry - test system: Histamine H3 receptor (Homo sapiens, UniProt Q9Y5N1); read-out: pKi; compound: CC(C)CCC(C)NC(=O)OCCCc1cnc[nH]1 (racemic)
7.52

Form entry - test system: Histamine H3 receptor (Homo sapiens, UniProt Q9Y5N1); read-out: pKi; compound: CC[C@@H](C)NC(=O)OCCCc1c[nH]cn1
7.92

* * *

target: Histamine H3 receptor (Rattus norvegicus)
Sequence (Q9QYN8 whole entry): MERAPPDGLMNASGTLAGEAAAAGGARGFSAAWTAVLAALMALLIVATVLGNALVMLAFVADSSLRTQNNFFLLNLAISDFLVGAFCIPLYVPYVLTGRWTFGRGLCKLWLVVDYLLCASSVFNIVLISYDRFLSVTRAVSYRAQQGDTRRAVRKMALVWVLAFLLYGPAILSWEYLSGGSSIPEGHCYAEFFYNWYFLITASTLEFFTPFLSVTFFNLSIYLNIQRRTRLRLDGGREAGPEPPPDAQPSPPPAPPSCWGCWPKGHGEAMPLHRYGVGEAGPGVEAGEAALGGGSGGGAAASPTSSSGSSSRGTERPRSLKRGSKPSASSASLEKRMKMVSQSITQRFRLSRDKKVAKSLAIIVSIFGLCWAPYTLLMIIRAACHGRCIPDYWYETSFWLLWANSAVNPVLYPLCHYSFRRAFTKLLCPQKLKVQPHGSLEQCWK
Readout Name: Ki (nM)
Give the number; nM is assumed, so skip it.

Form entry - test system: Histamine H3 receptor (Rattus norvegicus); read-out: Ki; molecule: CC(C)CCCC(C)NC(=O)OCCCc1cnc[nH]1 (racemic)
22

* * *

target: UniProt:Q9Y5N1; experiment: Displacement of […]iodoproxyfan from human histamine H3 receptor expressed in HEK293 cells; format: cell-based
Each item that follows carries a reported pKi.
pKi here: minus log base 10 of the concentration, concentration in moles per litre.

{"Chem Smiles": "CCCCCC[C@@H](C)NC(=O)OCCCc1c[nH]cn1", "pKi": 7.55}

Which pKi reading was recorded for the compound CCCCCC[C@H](C)NC(=O)OCCCc1c[nH]cn1 ?
7.37

* * *

target: Histamine H4 receptor (Homo sapiens, UniProt Q9H3N8); assay: Displacement of [3H]histamine from human histamine H4 receptor expressed in SF9 cells coexpressing Galphai2, Gbeta1gamma2
Sequence (Q9H3N8 whole entry): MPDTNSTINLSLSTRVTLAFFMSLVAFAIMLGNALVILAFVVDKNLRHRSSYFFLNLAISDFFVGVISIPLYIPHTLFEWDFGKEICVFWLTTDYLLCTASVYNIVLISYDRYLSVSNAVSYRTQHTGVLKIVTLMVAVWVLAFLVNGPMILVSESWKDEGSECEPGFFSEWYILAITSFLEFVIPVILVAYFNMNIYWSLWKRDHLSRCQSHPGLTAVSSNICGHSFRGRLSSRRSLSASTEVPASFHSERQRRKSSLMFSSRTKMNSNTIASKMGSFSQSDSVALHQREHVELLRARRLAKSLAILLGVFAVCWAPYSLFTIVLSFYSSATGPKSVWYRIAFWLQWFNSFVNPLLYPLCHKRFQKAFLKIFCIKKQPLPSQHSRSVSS
Each item that follows carries a reported Ki.
Give the number; nM is assumed, so skip it.

Examples with answers:
{"Compound": "CCC(C)CCNC(=O)OCCCc1c[nH]cn1 (racemic)", "Observed Measurement": 123}
{"Compound": "CCCCC[C@@H](C)NC(=O)OCCCc1cnc[nH]1", "Observed Measurement": 636}

Which Ki reading was recorded for the compound CC[C@@H](C)NC(=O)OCCCc1c[nH]cn1 ?
290
